System: MET (human), P08581 [Y1235D]
Test: KINOMEscan competition binding
Settings: compound 1.0 µM
property.name: kinase still bound, per cent of control (%)
Give bare numbers, in %.

Known results for molecules:
{"chem.smiles": "CN(C)C/C=C/C(=O)Nc1cccc(C(=O)Nc2ccc(Nc3nccc(/C(C#N)=C4\\Nc5ccccc5S4)n3)cc2)c1", "unit.abbreviation": "%", "kinase still bound, per cent of control": 100}
{"chem.smiles": "CN(C)C/C=C/C(=O)Nc1cccc(C(=O)Nc2ccc(Nc3nccc(-c4c(-c5ccccc5)nn5ccccc45)n3)cc2)c1", "unit.abbreviation": "%", "kinase still bound, per cent of control": 59}
{"chem.smiles": "Cc1cc(NC(=O)c2cccc(NC(=O)/C=C/CN(C)C)c2)ccc1Nc1nccc(-c2cccnc2)n1", "unit.abbreviation": "%", "kinase still bound, per cent of control": 100}

# evaluate next
Provide MET (human), P08581 [Y1235D] kinase still bound, per cent of control reading for CN(C)C/C=C/C(=O)Nc1cccc(C(=O)Nc2ccc(Nc3nccc(-c4cccnc4)n3)cc2)c1 .
100

###

Biological target: UniProt:O00750
Sequence (O00750 whole entry, looked up): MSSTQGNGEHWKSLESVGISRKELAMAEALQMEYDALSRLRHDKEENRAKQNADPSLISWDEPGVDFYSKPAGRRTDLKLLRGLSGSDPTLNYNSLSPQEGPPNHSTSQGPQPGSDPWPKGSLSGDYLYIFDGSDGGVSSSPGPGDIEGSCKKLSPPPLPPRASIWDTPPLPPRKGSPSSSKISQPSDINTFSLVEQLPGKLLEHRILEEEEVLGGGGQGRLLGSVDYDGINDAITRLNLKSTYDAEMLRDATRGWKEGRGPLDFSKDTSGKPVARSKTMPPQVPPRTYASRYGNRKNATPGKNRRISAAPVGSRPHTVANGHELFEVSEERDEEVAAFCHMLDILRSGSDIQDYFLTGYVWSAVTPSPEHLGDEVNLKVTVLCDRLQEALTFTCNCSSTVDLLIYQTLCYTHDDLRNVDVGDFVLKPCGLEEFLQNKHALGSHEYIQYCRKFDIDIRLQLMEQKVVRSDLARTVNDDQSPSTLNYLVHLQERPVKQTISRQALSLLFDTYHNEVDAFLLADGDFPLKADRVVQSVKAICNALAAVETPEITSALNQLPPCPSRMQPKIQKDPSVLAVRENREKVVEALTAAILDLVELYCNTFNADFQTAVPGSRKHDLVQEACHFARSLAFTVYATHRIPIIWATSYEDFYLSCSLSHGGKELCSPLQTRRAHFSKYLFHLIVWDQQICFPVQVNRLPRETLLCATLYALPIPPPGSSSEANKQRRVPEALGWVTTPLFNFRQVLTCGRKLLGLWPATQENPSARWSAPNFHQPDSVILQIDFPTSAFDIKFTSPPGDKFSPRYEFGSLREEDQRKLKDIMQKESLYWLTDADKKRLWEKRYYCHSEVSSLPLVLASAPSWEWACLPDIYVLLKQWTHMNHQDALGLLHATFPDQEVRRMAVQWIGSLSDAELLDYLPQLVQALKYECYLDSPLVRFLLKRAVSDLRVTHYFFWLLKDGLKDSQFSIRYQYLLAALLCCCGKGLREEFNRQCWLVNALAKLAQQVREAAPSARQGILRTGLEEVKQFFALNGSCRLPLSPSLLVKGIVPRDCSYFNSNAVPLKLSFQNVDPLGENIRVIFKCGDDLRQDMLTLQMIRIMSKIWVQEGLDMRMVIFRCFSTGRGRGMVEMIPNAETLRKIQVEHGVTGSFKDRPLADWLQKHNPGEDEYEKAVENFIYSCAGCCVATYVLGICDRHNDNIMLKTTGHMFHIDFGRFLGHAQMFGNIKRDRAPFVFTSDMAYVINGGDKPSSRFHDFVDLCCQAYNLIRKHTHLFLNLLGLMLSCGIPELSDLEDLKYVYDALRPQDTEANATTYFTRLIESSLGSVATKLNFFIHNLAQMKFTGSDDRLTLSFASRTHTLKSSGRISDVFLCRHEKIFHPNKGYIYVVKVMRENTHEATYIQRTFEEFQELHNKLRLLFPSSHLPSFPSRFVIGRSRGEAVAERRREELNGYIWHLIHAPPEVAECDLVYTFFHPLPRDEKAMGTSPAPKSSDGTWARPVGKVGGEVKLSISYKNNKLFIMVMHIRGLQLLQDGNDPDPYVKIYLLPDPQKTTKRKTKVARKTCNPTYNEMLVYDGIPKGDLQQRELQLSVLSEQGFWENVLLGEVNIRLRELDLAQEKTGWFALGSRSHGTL
Assay: KINOMEscan competition binding
Conditions: compound 1.0 µM
property.name: kinase still bound, per cent of control (%)
Numbers only, in %.

Known results for compounds:
{"chem.smiles": "CN(C)C/C=C/C(=O)Nc1cccc(C(=O)Nc2ccc(Nc3nccc(-c4c(-c5ccccc5)nn5ccccc45)n3)cc2)c1", "unit.abbreviation": "%", "value.reported": 100}
{"chem.smiles": "Cc1cc(NC(=O)c2cccc(NC(=O)/C=C/CN(C)C)c2)ccc1Nc1nccc(-c2cccnc2)n1", "unit.abbreviation": "%", "value.reported": 100}
{"chem.smiles": "CN(C)C/C=C/C(=O)Nc1cccc(C(=O)Nc2ccc(Nc3nccc(-c4cccnc4)n3)cc2)c1", "unit.abbreviation": "%", "value.reported": 100}

Tell me kinase still bound, per cent of control reported for CN(C)C/C=C/C(=O)Nc1cccc(C(=O)Nc2ccc(Nc3nccc(/C(C#N)=C4\Nc5ccccc5S4)n3)cc2)c1
96

###

Answer each item with its documented kinase still bound, per cent of control.
Target: MATK (human)
Experiment: KINOMEscan competition binding
Details: compound 1.0 µM
One number for each entry, in %.

Known results for compounds:
{"chem.smiles": "CN(C)C/C=C/C(=O)Nc1cccc(C(=O)Nc2ccc(Nc3nccc(-c4cccnc4)n3)cc2)c1", "target": "MATK (human)", "unit.abbreviation": "%", "kinase still bound, per cent of control": 99}
{"chem.smiles": "CN(C)C/C=C/C(=O)Nc1cccc(C(=O)Nc2ccc(Nc3nccc(/C(C#N)=C4\\Nc5ccccc5S4)n3)cc2)c1", "target": "MATK (human)", "unit.abbreviation": "%", "kinase still bound, per cent of control": 100}
{"chem.smiles": "CN(C)C/C=C/C(=O)Nc1cccc(C(=O)Nc2ccc(Nc3nccc(-c4c(-c5ccccc5)nn5ccccc45)n3)cc2)c1", "target": "MATK (human)", "unit.abbreviation": "%", "kinase still bound, per cent of control": 100}

# evaluate next
Tell me kinase still bound, per cent of control reported for Cc1cc(NC(=O)c2cccc(NC(=O)/C=C/CN(C)C)c2)ccc1Nc1nccc(-c2cccnc2)n1
81

###

Molecular target: CAMK1G (human)
Test: KINOMEscan competition binding
Details: compound 1.0 µM
property.name: kinase still bound, per cent of control

Known results for compounds:
{"chem.smiles": "Cc1cc(NC(=O)c2cccc(NC(=O)/C=C/CN(C)C)c2)ccc1Nc1nccc(-c2cccnc2)n1", "kinase still bound, per cent of control": "100%"}
{"chem.smiles": "CN(C)C/C=C/C(=O)Nc1cccc(C(=O)Nc2ccc(Nc3nccc(-c4cccnc4)n3)cc2)c1", "kinase still bound, per cent of control": "78%"}
{"chem.smiles": "CN(C)C/C=C/C(=O)Nc1cccc(C(=O)Nc2ccc(Nc3nccc(-c4c(-c5ccccc5)nn5ccccc45)n3)cc2)c1", "kinase still bound, per cent of control": "94%"}

# evaluate next
Tell me kinase still bound, per cent of control reported for CN(C)C/C=C/C(=O)Nc1cccc(C(=O)Nc2ccc(Nc3nccc(/C(C#N)=C4\Nc5ccccc5S4)n3)cc2)c1
100%

###

Molecular target: RIOK2 (human)
Test: KINOMEscan competition binding
Settings: compound 1.0 µM
property.name: kinase still bound, per cent of control
Please don't drop the unit; write it after the number.

Known results for compounds:
{"chem.smiles": "CN(C)C/C=C/C(=O)Nc1cccc(C(=O)Nc2ccc(Nc3nccc(-c4cccnc4)n3)cc2)c1", "kinase still bound, per cent of control": "2.2%"}
{"chem.smiles": "CN(C)C/C=C/C(=O)Nc1cccc(C(=O)Nc2ccc(Nc3nccc(/C(C#N)=C4\\Nc5ccccc5S4)n3)cc2)c1", "kinase still bound, per cent of control": "18%"}
{"chem.smiles": "Cc1cc(NC(=O)c2cccc(NC(=O)/C=C/CN(C)C)c2)ccc1Nc1nccc(-c2cccnc2)n1", "kinase still bound, per cent of control": "10%"}

# evaluate next
Tell me kinase still bound, per cent of control reported for CN(C)C/C=C/C(=O)Nc1cccc(C(=O)Nc2ccc(Nc3nccc(-c4c(-c5ccccc5)nn5ccccc45)n3)cc2)c1
27%

###

Target: SYK (human) (UniProt P43405)
Test: KINOMEscan competition binding
Details: compound 1.0 µM
Answer each item with its documented kinase still bound, per cent of control.
One number for each entry, in %.

Known results for molecules:
{"chem.smiles": "Cc1cc(NC(=O)c2cccc(NC(=O)/C=C/CN(C)C)c2)ccc1Nc1nccc(-c2cccnc2)n1", "property.name": "kinase still bound, per cent of control", "unit.abbreviation": "%", "value.reported": 100}
{"chem.smiles": "CN(C)C/C=C/C(=O)Nc1cccc(C(=O)Nc2ccc(Nc3nccc(/C(C#N)=C4\\Nc5ccccc5S4)n3)cc2)c1", "property.name": "kinase still bound, per cent of control", "unit.abbreviation": "%", "value.reported": 85}
{"chem.smiles": "CN(C)C/C=C/C(=O)Nc1cccc(C(=O)Nc2ccc(Nc3nccc(-c4c(-c5ccccc5)nn5ccccc45)n3)cc2)c1", "property.name": "kinase still bound, per cent of control", "unit.abbreviation": "%", "value.reported": 82}

Tell me kinase still bound, per cent of control reported for CN(C)C/C=C/C(=O)Nc1cccc(C(=O)Nc2ccc(Nc3nccc(-c4cccnc4)n3)cc2)c1
66

###

Target: PIM3 (human) (UniProt Q86V86)
Assay: KINOMEscan competition binding
Settings: compound 1.0 µM
Answer each item with its documented kinase still bound, per cent of control.
Give bare numbers, in %.

Known results for compounds:
{"chem.smiles": "CN(C)C/C=C/C(=O)Nc1cccc(C(=O)Nc2ccc(Nc3nccc(/C(C#N)=C4\\Nc5ccccc5S4)n3)cc2)c1", "target": "PIM3 (human) (UniProt Q86V86)", "property.name": "kinase still bound, per cent of control", "value.reported": 100}
{"chem.smiles": "Cc1cc(NC(=O)c2cccc(NC(=O)/C=C/CN(C)C)c2)ccc1Nc1nccc(-c2cccnc2)n1", "target": "PIM3 (human) (UniProt Q86V86)", "property.name": "kinase still bound, per cent of control", "value.reported": 56}
{"chem.smiles": "CN(C)C/C=C/C(=O)Nc1cccc(C(=O)Nc2ccc(Nc3nccc(-c4cccnc4)n3)cc2)c1", "target": "PIM3 (human) (UniProt Q86V86)", "property.name": "kinase still bound, per cent of control", "value.reported": 92}

# evaluate next
Tell me kinase still bound, per cent of control reported for CN(C)C/C=C/C(=O)Nc1cccc(C(=O)Nc2ccc(Nc3nccc(-c4c(-c5ccccc5)nn5ccccc45)n3)cc2)c1
94

###

Molecular target: CRK2 (P.falciparum)
Assay: KINOMEscan competition binding
Details: compound 1.0 µM
property.name: kinase still bound, per cent of control (%)
One number for each entry, in %.

Known results for compounds:
{"chem.smiles": "CN(C)C/C=C/C(=O)Nc1cccc(C(=O)Nc2ccc(Nc3nccc(-c4c(-c5ccccc5)nn5ccccc45)n3)cc2)c1", "kinase still bound, per cent of control (%)": 100}
{"chem.smiles": "CN(C)C/C=C/C(=O)Nc1cccc(C(=O)Nc2ccc(Nc3nccc(-c4cccnc4)n3)cc2)c1", "kinase still bound, per cent of control (%)": 100}
{"chem.smiles": "Cc1cc(NC(=O)c2cccc(NC(=O)/C=C/CN(C)C)c2)ccc1Nc1nccc(-c2cccnc2)n1", "kinase still bound, per cent of control (%)": 90}

# evaluate next
Tell me kinase still bound, per cent of control reported for CN(C)C/C=C/C(=O)Nc1cccc(C(=O)Nc2ccc(Nc3nccc(/C(C#N)=C4\Nc5ccccc5S4)n3)cc2)c1
100

###

Molecular target: PKN1 (human) (UniProt Q16512)
Sequence (Q16512 whole entry, looked up): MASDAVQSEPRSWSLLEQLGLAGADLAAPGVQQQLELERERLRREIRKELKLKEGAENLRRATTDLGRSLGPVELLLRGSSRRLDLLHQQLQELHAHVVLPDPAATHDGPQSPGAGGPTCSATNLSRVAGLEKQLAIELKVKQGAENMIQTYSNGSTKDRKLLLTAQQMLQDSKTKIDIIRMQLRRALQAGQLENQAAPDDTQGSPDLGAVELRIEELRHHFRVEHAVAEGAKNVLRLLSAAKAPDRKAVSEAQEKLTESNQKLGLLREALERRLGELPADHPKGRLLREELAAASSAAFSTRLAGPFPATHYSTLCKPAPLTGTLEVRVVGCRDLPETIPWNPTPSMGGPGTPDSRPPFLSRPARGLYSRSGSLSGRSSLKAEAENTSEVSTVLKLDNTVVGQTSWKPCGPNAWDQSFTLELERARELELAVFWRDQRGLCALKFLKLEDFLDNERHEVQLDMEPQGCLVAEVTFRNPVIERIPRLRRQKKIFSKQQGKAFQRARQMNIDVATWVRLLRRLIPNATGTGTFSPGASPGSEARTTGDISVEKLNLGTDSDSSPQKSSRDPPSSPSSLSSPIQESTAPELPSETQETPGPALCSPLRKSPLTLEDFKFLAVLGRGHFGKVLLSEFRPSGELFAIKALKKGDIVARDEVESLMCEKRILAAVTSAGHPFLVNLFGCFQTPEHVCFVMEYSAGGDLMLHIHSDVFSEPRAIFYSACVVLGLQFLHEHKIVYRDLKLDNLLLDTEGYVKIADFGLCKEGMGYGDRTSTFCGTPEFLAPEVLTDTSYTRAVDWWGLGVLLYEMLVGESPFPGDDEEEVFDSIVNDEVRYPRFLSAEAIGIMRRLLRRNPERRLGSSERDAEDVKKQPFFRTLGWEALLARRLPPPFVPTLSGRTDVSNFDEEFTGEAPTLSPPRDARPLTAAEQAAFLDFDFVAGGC
Assay: KINOMEscan competition binding
Conditions: compound 1.0 µM
property.name: kinase still bound, per cent of control (%)
Give bare numbers, in %.

Known results for molecules:
{"chem.smiles": "Cc1cc(NC(=O)c2cccc(NC(=O)/C=C/CN(C)C)c2)ccc1Nc1nccc(-c2cccnc2)n1", "target": "PKN1 (human) (UniProt Q16512)", "kinase still bound, per cent of control, %": 94}
{"chem.smiles": "CN(C)C/C=C/C(=O)Nc1cccc(C(=O)Nc2ccc(Nc3nccc(/C(C#N)=C4\\Nc5ccccc5S4)n3)cc2)c1", "target": "PKN1 (human) (UniProt Q16512)", "kinase still bound, per cent of control, %": 92}

Fill in kinase still bound, per cent of control for each of the 2 molecules listed.
1. CN(C)C/C=C/C(=O)Nc1cccc(C(=O)Nc2ccc(Nc3nccc(-c4cccnc4)n3)cc2)c1
2. CN(C)C/C=C/C(=O)Nc1cccc(C(=O)Nc2ccc(Nc3nccc(-c4c(-c5ccccc5)nn5ccccc45)n3)cc2)c1

100
100
